Tested on: MALME-3M melanoma
Assay: NCI-60 one-dose screen, 48 h
Conditions: 10 µM
About 83,000 compounds went through this panel and 20% of them were active in at least one assay; those are over-represented in the sample as a whole. Active and inactive are the calls of the source. How the source made its calls: active means growth percent below 10; inactive means the rest.
Log the outcome using a class from active, inactive

Per the assay record, what outcome was assigned to CC(=O)NNc1ccc2nnc(-c3ccc(Br)cc3)n2n1 ?
inactive

Dear colleague, could you share the recorded outcome for N#Cc1c(NC(=O)c2ccc(C(O)(C(F)(F)F)C(F)(F)F)cc2)sc2c1CCC(=O)C2 when you have a moment?
active

Give the logged outcome of this assay for the following molecule: CN1CCN(c2ccc(Nc3nc(N4CCN(S(=O)(=O)c5ccc(Cl)cc5)CC4)c4sccc4n3)cc2)CC1
active

# lookup: test call for Cc1ccc(C(=O)NCCCNc2nc(Nc3ccc(N4CCN(C)CC4)cc3)nc3ccsc23)cc1
active

Recorded call for Cc1ccc(-c2cc(C(=O)N=Nc3c(O)[nH]c4ccccc34)c3ccccc3n2)cc1 ?
inactive

Please state the recorded outcome for this molecule: COc1ccc(-c2ccc(SCC(=O)Nc3ccc(C#N)cc3)nn2)cc1
inactive

Outcome logged for Cc1ccc2nc3c(nc2c1)c1cc(I)ccc1n3CCN(C)C in this assay:
active

Hello, I am checking results. What call was entered for CCCCCc1ccc(S(=O)(=O)N(C(C)=O)c2cc(-c3csc(N(C)C(C)=O)n3)ccc2N2CCN(C)CC2)cc1 ?
active

Give the logged outcome of this assay for the following molecule: O=C(Nc1cccc(-c2cn(-c3ccc4oc(=O)ccc4c3)nn2)c1)Nc1cc(C(F)(F)F)cc(C(F)(F)F)c1
inactive
